# Assay comment: qHTS of pediatric cancer cell lines to identify multiple opportunities for drug repurposing: Primary screen for TC32 cells (AID 1347089); further: nearly all actives have a fitted effect of over 60% in size
# Condition summary: TC32 Ewing sarcoma viability, CellTiter-Glo luminescence, 48 h; series mostly up to 45.8 µM
Records with an inconclusive call do not appear. The source made the active and inactive calls. The call rests on the fitted dose curve; in most records, active means well fitted cell-killing curve with a large enough effect; inconclusive means small, poorly fitted or top-dose-only effect; inactive means flat fitted curve, though single readings scatter. Numbered stars: 1 amine (or outer) side, 2 acyl side, 3 side chain; on linkers, the order of the positions; unused ones are H or OH. Bridge positions count the residues as written; N and C are the ends. Square brackets hold non-standard residues; d marks the D form. Peptide text beside a SMILES is read from it. I, II: the chains in the order shown. Actinocin(9to1) = Cc1c2oc3c(C)ccc(C(=O)[*:1])c3nc-2c(C(=O)[*:2])c(N)c1=O; NMeV = CN[C@H](C(=O)O)C(C)C; Sar = CNCC(=O)O
Possible outcomes: 1 (yes) (active), 0 (no) (inactive)

{"Molecule": "Cc1c2oc3c(C)ccc(C(=O)N[C@@H]4C(=O)N[C@H](C(C)C)C(=O)N5CCC[C@H]5C(=O)N(C)CC(=O)N(C)[C@@H](C(C)C)C(=O)O[C@@H]4C)c3nc-2c(C(=O)N[C@@H]2C(=O)N[C@H](C(C)C)C(=O)N3CCC[C@H]3C(=O)N(C)CC(=O)N(C)[C@@H](C(C)C)C(=O)O[C@@H]2C)c(N)c1=O (I: T[dV]P[Sar][NMeV] / II: T[dV]P[Sar][NMeV]; ester I:1-I:C, II:1-II:C; linker I:N-II:N via Actinocin(9to1))", "Group": "1 (yes)"}
{"Molecule": "NCCc1ccn[nH]1", "Group": "0 (no)"}
{"Molecule": "CC(=O)Oc1ccc(C(c2ccc(OC(C)=O)cc2)c2ccccn2)cc1", "Group": "0 (no)"}
{"Molecule": "Cc1c(F)c(N2CCNC(C)C2)cc2c1c(=O)c(C(=O)O)cn2C1CC1 (configuration not stated)", "Group": "0 (no)"}
{"Molecule": "O=c1ccc2ccccc2o1", "Group": "0 (no)"}
{"Molecule": "OC[C@H]1O[C@H](O[C@]2(CCl)O[C@H](CCl)[C@@H](O)[C@@H]2O)[C@H](O)[C@@H](O)[C@H]1Cl", "Group": "0 (no)"}
{"Molecule": "CCCCCCCCCCCCCCCCCC(=O)OCC(O)CO (configuration not stated)", "Group": "0 (no)"}
